For each record, write down the corresponding Kd.
target under test: HLA-B*35:01
protocol: IEDB peptide-MHC binding, purified MHC/competitive/radioactivity; filed as Kd, often an IC50 or EC50 that approximates it; bounds were set here for any values at or beyond the usual limits of such assays
measurement parameters: source organism: Vaccinia virus WR
Answers are plain numbers, in µM.

I have 4 sequences here; please give me Kd for each one.
1. SPTEMVDVSM
2. LPMIIGEPII
3. TPLHKYCVNL
4. PPLISILMIF

Reply |
1: 0.0372; 2: 0.75; 3: 7.36; 4: 0.761

----------
target under test: HLA-A*68:02
protocol: IEDB peptide-MHC binding, purified MHC/competitive/radioactivity; filed as Kd, often an IC50 or EC50 that approximates it; bounds were set here for any values at or beyond the usual limits of such assays
measurement parameters: source organism: Homo sapiens
measurement kind: pKd
Give bare numbers, as −log10 of the molar value.

Ask | Give recorded pKd. ETVSEESNV
Reply | 7.36
